The reader will find reported MIC Coagulase Negative Staphylococcus (GC 4547) values listed item by item below.
Test system: Staphylococcus sp.
Experiment: In vitro antibacterial evaluation: minimum inhibitory concentration (MIC), broth dilution method
Format: cell-based
Settings: Coagulase Negative Staphylococcus (GC 4547); 18 hours at 35° C.

Take a look at these entries with their results.
The molecule listed as CCCCCNC(=O)OC1C(CO)OC(OC2C(CO)OC(Oc3ccc(CC4NC(=O)C(C(C)c5ccccc5)NC(=O)CNC(=O)C(CO)NC(=O)C(C(O)C5CNC(=N)N5C5OC(CO)C(O)C(O)C5O)NC(=O)C(C(O)C5CNC(=N)N5)NC4=O)cc3)C(O)C2O)C(O)C1O (stereo not drawn) has a reported MIC Coagulase Negative Staphylococcus (GC 4547) of >64 µg/mL

The molecule listed as CC(c1ccccc1)C1NC(=O)CNC(=O)C(CO)NC(=O)C(C(O)C2CNC(=N)N2C2OC(CO)C(O)C(O)C2O)NC(=O)C(C(O)C2CNC(=N)N2)NC(=O)C(Cc2ccc(OC3OC(CO)C(OC4OC(COCC=C(c5ccccc5)c5ccccc5)C(O)C(O)C4O)C(O)C3O)cc2)NC1=O (stereo not drawn) has a reported MIC Coagulase Negative Staphylococcus (GC 4547) of 2 µg/mL

Could you now consider this next molecule?
The molecule listed as CC(c1ccccc1)C1NC(=O)CNC(=O)C(CO)NC(=O)C(C(O)C2CNC(=N)N2C2OC(CO)C(O)C(O)C2O)NC(=O)C(C(O)C2CNC(=N)N2)NC(=O)C(Cc2ccc(OC3OC(CO)C(OC4OC(COCc5ccc(OCc6ccccc6)cc5)C(O)C(O)C4O)C(O)C3O)cc2)NC1=O (stereo not drawn) has a reported MIC Coagulase Negative Staphylococcus (GC 4547) of 1 to 2 µg/mL

====

System: Enterococcus sp.
Assay: In vitro antibacterial evaluation: minimum inhibitory concentration (MIC), broth dilution method
Assay type: cell-based
Details: strain GC 4554
The reader will find reported MIC Enterococcus faecalis (GC 4554) values listed item by item below.
Number in µg/mL, nothing else.

Take a look at these entries with their results.
The molecule listed as CC(c1ccccc1)C1NC(=O)CNC(=O)C(CO)NC(=O)C(C(O)C2CN(Cc3ccc(-c4ccccc4)cc3)C(=N)N2C2OC(CO)C(O)C(O)C2O)NC(=O)C(C(O)C2CNC(=NCc3ccc(-c4ccccc4)cc3)N2Cc2ccc(-c3ccccc3)cc2)NC(=O)C(Cc2ccc(OC3OC(CO)C(OC4OC(CO)C(O)C(O)C4O)C(O)C3O)cc2)NC1=O (stereo not drawn) has a reported MIC Enterococcus faecalis (GC 4554) of 64

The molecule listed as CC(c1ccccc1)C1NC(=O)CNC(=O)C(CO)NC(=O)C(C(O)C2CNC(=N)N2C2OC(CO)C(O)C(O)C2O)NC(=O)C(C(O)C2CNC(=N)N2)NC(=O)C(Cc2ccc(OC3OC(CO)C(OC4OC5COC(c6ccc(-c7ccsc7)cc6)OC5C(O)C4O)C(O)C3O)cc2)NC1=O (stereo not drawn) has a reported MIC Enterococcus faecalis (GC 4554) of 16

Could you now consider this next molecule?
The molecule listed as CCOc1cc(C2OCC3OC(OC4C(CO)OC(Oc5ccc(CC6NC(=O)C(C(C)c7ccccc7)NC(=O)CNC(=O)C(CO)NC(=O)C(C(O)C7CNC(=N)N7C7OC(CO)C(O)C(O)C7O)NC(=O)C(C(O)C7CNC(=N)N7)NC6=O)cc5)C(O)C4O)C(O)C(O)C3O2)ccc1OC (stereo not drawn) has a reported MIC Enterococcus faecalis (GC 4554) of 32

====

Experiment: Anatomic pathology (heart and kidney histopathology) in mice
Type: in vivo, CD-1 mice
Conditions: 20 mg/kg intravenously daily for 9 days, microscopic histopathology on day 10
measurement_label: Anatomical Pathology (Day 10), Kidney

The molecule listed as CN=C1N(C)CC(CC2NC(=O)C(Cc3ccc(OC4OC(CO)C(OC5OC(CO)C(O)C(O)C5O)C(O)C4O)cc3)NC(=O)C(C(C)c3ccccc3)NC(=O)CNC(=O)C(CO)NC(=O)C(CC3CN(C)C(=NC)N3C3OC(CO)C(O)C(O)C3O)NC2=O)N1C (stereo not shown) [Example 74] has a reported Anatomical Pathology (Day 10), Kidney of 0

The molecule listed as CC(c1ccccc1)C1NC(=O)CNC(=O)C(CO)NC(=O)C(CC2CNC(=N)N2C2OC(CO)C(O)C(O)C2O)NC(=O)C(CC2CNC(=N)N2)NC(=O)C(Cc2ccc(OC3OC(CO)C(OC4OC5COC6(OC5C(O)C4O)C4CC5CC(C4)CC6C5)C(O)C3O)cc2)NC1=O (stereo not shown) [Example 219] has a reported Anatomical Pathology (Day 10), Kidney of +++

The molecule listed as CC(c1ccccc1)C1NC(=O)CNC(=O)C(CO)NC(=O)C(C(O)C2CNC(=N)N2C2OC(CO)C(O)C(O)C2O)NC(=O)C(C(O)C2CNC(=N)N2)NC(=O)C(Cc2ccc(OC3OC(CO)C(OC4OC5COC(Cc6ccccc6)OC5C(O)C4O)C(O)C3O)cc2)NC1=O (stereo not shown) [Example 102] has a reported Anatomical Pathology (Day 10), Kidney of +++

The molecule listed as CC(c1ccccc1)C1NC(=O)CNC(=O)C(CO)NC(=O)C(CC2CNC(=N)N2C2OC(CO)C(O)C(O)C2O)NC(=O)C(CC2CNC(=N)N2)NC(=O)C(Cc2ccc(OC3OC(CO)C(OC4OC(CO)C(O)C(O)C4O)C(O)C3O)cc2)NC1=O (stereo not shown) [Example 277a] has a reported Anatomical Pathology (Day 10), Kidney of ++

====

The reader will find reported MIC Enterococcus faecalis (GC 4554) values listed item by item below.
Tested on: Enterococcus sp.
Assay: In vitro antibacterial evaluation: minimum inhibitory concentration (MIC), broth dilution method
Type: cell-based
Details: Enterococcus faecalis (GC 4554); 18 hours at 35° C.
The reply should consist of the numeric value with the unit placed after it.

Take a look at these entries with their results.
The molecule listed as CC(c1ccccc1)C1NC(=O)CNC(=O)C(CO)NC(=O)C(C(O)C2CNC(=N)N2C2OC(CO)C(O)C(O)C2O)NC(=O)C(C(O)C2CNC(=N)N2)NC(=O)C(Cc2ccc(OC3OC(CO)C(OC4OC(CO)C(OCC=C(c5ccccc5)c5ccccc5)C(O)C4O)C(O)C3O)cc2)NC1=O (stereo not shown) [Example 241a] has a reported MIC Enterococcus faecalis (GC 4554) of 4 µg/mL

The molecule listed as COc1ccc2cc(C3OCC4OC(OC5C(CO)OC(Oc6ccc(CC7NC(=O)C(C(C)c8ccccc8)NC(=O)CNC(=O)C(CO)NC(=O)C(CC8CNC(=N)N8C8OC(CO)C(O)C(O)C8O)NC(=O)C(CC8CNC(=N)N8)NC7=O)cc6)C(O)C5O)C(O)C(O)C4O3)ccc2c1 (stereo not shown) has a reported MIC Enterococcus faecalis (GC 4554) of 32 µg/mL

---
The molecule listed as CC(c1ccccc1)C1NC(=O)CNC(=O)C(CO)NC(=O)C(C(O)C2CNC(=N)N2C2OC(CO)C(O)C(O)C2O)NC(=O)C(C(O)C2CNC(=N)N2)NC(=O)C(Cc2ccc(OC3OC(CO)C(OC4OC5COC6(CC7CCC6(C)C7(C)C)OC5C(O)C4O)C(O)C3O)cc2)NC1=O (stereo not shown) has a reported MIC Enterococcus faecalis (GC 4554) of 2 µg/mL

The molecule listed as CC(c1ccccc1)C1NC(=O)CNC(=O)C(CO)NC(=O)C(CC2CNC(=N)N2C2OC(CO)C(O)C(O)C2O)NC(=O)C(CC2CNC(=N)N2)NC(=O)C(Cc2ccc(OC3OC(CO)C(OC4OC(COCc5ccc(OCc6ccccc6)cc5)C(O)C(O)C4O)C(O)C3O)cc2)NC1=O (stereo not shown) has a reported MIC Enterococcus faecalis (GC 4554) of 32 µg/mL

====

System: Enterococcus sp.
Experiment: In vitro antibacterial evaluation: minimum inhibitory concentration (MIC), broth dilution method
Format: cell-based
Details: Enterococcus faecium (GC 2243); 18 hours at 35° C.
The reader will find reported MIC Enterococcus faecium (GC 2243) values listed item by item below.
Number in µg/mL, nothing else.

The compound listed as Cc1ccc(COCC2OC(OC3C(CO)OC(Oc4ccc(CC5NC(=O)C(C(C)c6ccccc6)NC(=O)CNC(=O)C(CO)NC(=O)C(C(O)C6CNC(=N)N6C6OC(CO)C(O)C(O)C6O)NC(=O)C(C(O)C6CNC(=N)N6)NC5=O)cc4)C(O)C3O)C(O)C(O)C2O)cc1 (stereo not drawn) [Example 234] has a reported MIC Enterococcus faecium (GC 2243) of 8

---
The compound listed as COc1ccc(COCC2OC(OC3C(CO)OC(Oc4ccc(CC5NC(=O)C(C(C)c6ccccc6)NC(=O)CNC(=O)C(CO)NC(=O)C(C(O)C6CNC(=N)N6C6OC(CO)C(O)C(O)C6O)NC(=O)C(C(O)C6CNC(=N)N6)NC5=O)cc4)C(O)C3O)C(O)C(O)C2O)cc1F (stereo not drawn) [Example 237] has a reported MIC Enterococcus faecium (GC 2243) of 16

The compound listed as CC(c1ccccc1)C1NC(=O)CNC(=O)C(CO)NC(=O)C(CC2CNC(=N)N2C2OC(CO)C(O)C(O)C2O)NC(=O)C(CC2CNC(=N)N2)NC(=O)C(Cc2ccc(OC3OC(CO)C(OC4OC5COC(c6ccc(OCc7ccccc7)cc6)OC5C(O)C4O)C(O)C3O)cc2)NC1=O (stereo not drawn) [Example 191] has a reported MIC Enterococcus faecium (GC 2243) of 8

The compound listed as CCOc1cc(COCC2OC(OC3C(CO)OC(Oc4ccc(CC5NC(=O)C(C(C)c6ccccc6)NC(=O)CNC(=O)C(CO)NC(=O)C(C(O)C6CNC(=N)N6C6OC(CO)C(O)C(O)C6O)NC(=O)C(C(O)C6CNC(=N)N6)NC5=O)cc4)C(O)C3O)C(O)C(O)C2O)ccc1OC (stereo not drawn) [Example 238] has a reported MIC Enterococcus faecium (GC 2243) of 16

The compound listed as CC(c1ccccc1)C1NC(=O)CNC(=O)C(CO)NC(=O)C(C(O)C2CNC(=N)N2C2OC(CO)C(O)C(O)C2O)NC(=O)C(C(O)C2CNC(=N)N2)NC(=O)C(Cc2ccc(OC3OC(CO)C(OC4OC5COC(c6ccccc6)OC5C(O)C4O)C(O)C3O)c(I)c2)NC1=O (stereo not drawn) [Example 196] has a reported MIC Enterococcus faecium (GC 2243) of 64

Entry source: patent US8247211B2
